These measurements were taken from paper PMC11997982.

molecular target: His-GST-ED WT (Influenza A virus A/Brevig …, UniProt Q99AU3 86-230); assay: fluorescence polarization; […], pH 8.0, 1 h at room temperature; […]; conditions: protein: recombinant; tags: N-term 10xHis-GST; chain copies: 3; label: 5'-FAM (FITC) on both strands; blunt
Sequence (Q99AU3 86-230): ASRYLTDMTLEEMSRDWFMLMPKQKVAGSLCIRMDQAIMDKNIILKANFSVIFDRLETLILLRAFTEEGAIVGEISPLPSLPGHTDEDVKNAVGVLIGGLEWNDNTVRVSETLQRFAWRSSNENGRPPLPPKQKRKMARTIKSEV
readout.name: Kd (nM)
Give the value, in units of nM, as a plain number.

Query string: Given the binder FAM-dsRNA 16 bp (dsRNA) RNA 1: CCAUCCUCUACAGGCG RNA 2: CGCCUGUAGAGGAUGG , what is its reported Kd?
Result string: 1900
